Some compounds, each annotated with its measured melting point.

[
  {
    "compound": "COCc1cc2c(cc1C(=O)N1Cc3c(F)ccc(F)c3C1)[nH]c(=O)c1cnc(C3CCOCC3)n12.Cl",
    "melting point": "172 to 174 °C"
  },
  {
    "compound": "Cc1cc2c(cc1C(=O)N1Cc3ccc(Cl)cc3C1)[nH]c(=O)c1cnc(C3CCOC3)n12.Cl (stereo not drawn)",
    "melting point": "185 to 187 °C"
  },
  {
    "compound": "Cc1ccc2c(c1)CN(C(=O)c1cc3[nH]c(=O)c4cnc(C5CCOCC5)n4c3cc1C)C2",
    "melting point": "203 to 205 °C"
  },
  {
    "compound": "COc1cc2c(cc1C(=O)N1CCc3cc(F)ccc31)[nH]c(=O)c1cnc(C3CCOCC3)n12.Cl",
    "melting point": "321 to 324 °C (dec.)"
  },
  {
    "compound": "Cc1cc2c(cc1C(=O)N1CCc3c(Cl)cc(Cl)cc3C1)[nH]c(=O)c1cnc(C3CCOCC3)n12.Cl",
    "melting point": "188 to 190 °C (dec.)"
  },
  {
    "compound": "Cc1cc2c(cc1C(=O)N1CCCc3ccccc3C1)[nH]c(=O)c1cnc(C3CCOCC3)n12.Cl",
    "melting point": "170 to 172 °C"
  },
  {
    "compound": "Cc1cc2c(cc1C(=O)N1CCc3cc(F)ccc31)[nH]c(=O)c1nnc(C3(C)CCOCC3)n12.Cl [Example 322]",
    "melting point": "243 to 245 °C"
  },
  {
    "compound": "Cc1cc2c(cc1C(=O)N1CCc3cc(Cl)ccc31)[nH]c(=O)c1ncc(C3CCCC3)n12.Cl",
    "melting point": "279 °C (dec.)"
  },
  {
    "compound": "Cc1cc2c(cc1C(=O)N1CCc3cc(F)c(F)cc31)[nH]c(=O)c1cnc(C3CCOCC3)n12.Cl",
    "melting point": "287 to 288 °C"
  },
  {
    "compound": "O=C(c1ccc2c(c1)[nH]c(=O)c1nnc(-c3ccc(O)cc3)n12)N1CCc2c(Cl)cccc2C1 [Example 4]",
    "melting point": "373 °C (dec.)"
  },
  {
    "compound": "Cc1cc2c(cc1C(=O)N1Cc3ccccc3C1)[nH]c(=O)c1nnc([C@@H]3CCC[C@@H]3O)n12 (racemic)",
    "melting point": "316 °C (dec.)"
  },
  {
    "compound": "Cc1cc2c(cc1C(=O)N1CCc3cc(Cl)ccc31)[nH]c(=O)c1nnc(C3CCC3)n12.Cl",
    "melting point": "225 to 228 °C"
  },
  {
    "compound": "Cc1cc2c(cc1C(=O)N1Cc3cccc(C)c3C1)[nH]c(=O)c1nnc(C3CCOC3)n12.Cl (stereo not drawn)",
    "melting point": "311 °C (dec.)"
  },
  {
    "compound": "Cc1c(C(=O)N2Cc3ccccc3C2)ccc2c1[nH]c(=O)c1cnc(C3CCOCC3)n12.Cl",
    "melting point": "183 to 186 °C"
  },
  {
    "compound": "Cc1cc2c(cc1C(=O)N1CCc3ccc(Cl)cc31)[nH]c(=O)c1cnc(C3CCOCC3)n12.Cl",
    "melting point": "188 to 189 °C"
  },
  {
    "compound": "Cc1cc2c(cc1C(=O)N1CCc3cc(Cl)c(F)cc31)[nH]c(=O)c1cnc(C3CCOCC3)n12.Cl [Example 290]",
    "melting point": "292 to 294 °C"
  },
  {
    "compound": "CN(C)CCOc1cc2c(cc1C(=O)N1CCc3cc(F)ccc31)[nH]c(=O)c1cnc(C3CCOCC3)n12 [Example 309]",
    "melting point": "216 to 219 °C (dec.)"
  },
  {
    "compound": "COc1cc2c(cc1C(=O)N1Cc3ccc(Cl)cc3C1)[nH]c(=O)c1cnc(C3CCOCC3)n12.Cl",
    "melting point": "210 to 213 °C (dec.)"
  },
  {
    "compound": "Cc1cc2c(cc1C(=O)N1Cc3ccccc3C1)[nH]c(=O)c1nnc(C3CCC(F)(F)CC3)n12",
    "melting point": "322 °C (dec.)"
  },
  {
    "compound": "CCCc1nnc2c(=O)[nH]c3cc(C(=O)N4CCc5c(Cl)cccc5C4)c(C)cc3n12",
    "melting point": "198 to 202 °C"
  },
  {
    "compound": "Cc1cc2c(cc1C(=O)N1CCc3cnn(C)c3C1)[nH]c(=O)c1cnc(C3CCOCC3)n12",
    "melting point": "192 to 194 °C (dec.)"
  },
  {
    "compound": "O=C(c1cc2[nH]c(=O)c3cnc(C4CCOCC4)n3c2cc1Cl)N1CCc2cccnc21 [Example 279]",
    "melting point": "275 °C (dec.)"
  },
  {
    "compound": "CCCc1nnc2c(=O)[nH]c3cc(C(=O)N4CCc5c(Cl)cccc5C4)ccc3n12",
    "melting point": "293 to 295 °C"
  },
  {
    "compound": "O=C(c1ccc2c(c1)[nH]c(=O)c1nnc(C3CCOCC3)n12)N1CCc2c(Cl)cccc2C1",
    "melting point": "318 °C (dec.)"
  },
  {
    "compound": "Cl.O=C(c1cc2[nH]c(=O)c3cnc(C4CCOCC4)n3c2cc1C1CC1)N1Cc2ccc(Cl)cc2C1",
    "melting point": "199 to 203 °C (dec.)"
  },
  {
    "compound": "Cc1cc2c(cc1C(=O)N1CCc3cccnc31)[nH]c(=O)c1nnc(C3CCC(F)(F)CC3)n12.Cl",
    "melting point": "310 °C (dec.)"
  },
  {
    "compound": "Cl.O=C(c1cc2[nH]c(=O)c3cnc(C4CCOCC4)n3c2cc1C1CC1)N1CCc2cc(F)ccc21",
    "melting point": "318 to 321 °C (dec.)"
  },
  {
    "compound": "COc1cc2c(cn1)N(C(=O)c1cc3[nH]c(=O)c4nnc(C5CCCC5)n4c3cc1C)CC2",
    "melting point": "263 to 265 °C"
  },
  {
    "compound": "Cc1cc2c(cc1C(=O)N1CCc3cc(F)ccc31)[nH]c(=O)c1nnc(C3CC(F)(F)C3)n12",
    "melting point": "234 to 235 °C"
  },
  {
    "compound": "Cc1cc2c(cc1C(=O)N1CCc3cc(C4CC4)cnc31)[nH]c(=O)c1nnc(C3CCCOC3)n12 (stereo not drawn)",
    "melting point": "204 to 206 °C"
  },
  {
    "compound": "Cc1cc2c(cc1C(=O)N1Cc3cccc(C)c3C1)[nH]c(=O)c1cnc(C3CCCOC3)n12.Cl (stereo not drawn)",
    "melting point": "283 °C (dec.)"
  },
  {
    "compound": "Cc1cc2c(cc1C(=O)N1CCc3cc(C4CC4)cnc31)[nH]c(=O)c1nnc(C3CCOCC3)n12",
    "melting point": "210 to 212 °C"
  },
  {
    "compound": "Cc1cc2c(cc1C(=O)N1CCc3cc(Cl)ccc31)[nH]c(=O)c1nnc([C@H]3CC[C@H](O)CC3)n12.Cl",
    "melting point": "235 to 237 °C"
  }
]
